The values you see were collected from ChEMBL document CHEMBL4261575.

The reader will find IC50 measurements below, all made with UniProt Q72547.

Cc1cc(/C=C2\NC(=O)NC2=O)c(C)n1-c1ccc(OCc2ccc(Cl)cc2Cl)cc1
8.73 µM
O=C1Nc2ccccc2/C1=N\NC(=O)c1ccc(O)cc1O
36.4 µM
COc1cc(/C=N/NC(=O)COc2cccc(C)c2)c(O)c([N+](=O)[O-])c1
> 100 µM
CC(Oc1ccc(C(C)(C)C)cc1)C(=O)NN (configuration not stated)
> 100 µM
NNC(=O)C12CC3CC(C1)CC(n1cnc(Cl)n1)(C3)C2
> 100 µM

We next turn to a different compound, shown below.
Reported IC50 for UniProt Q72547, given COc1cccc(/C=C2\NC(=O)NC2=O)c1-c1ccc(OC(=O)Nc2ccccc2)cc1 ? 28.1 µM
